TARGET OR SYSTEM: Progesterone receptor (Homo sapiens, UniProt P06401); also: assay procedure not described here
Sequence (P06401 whole entry): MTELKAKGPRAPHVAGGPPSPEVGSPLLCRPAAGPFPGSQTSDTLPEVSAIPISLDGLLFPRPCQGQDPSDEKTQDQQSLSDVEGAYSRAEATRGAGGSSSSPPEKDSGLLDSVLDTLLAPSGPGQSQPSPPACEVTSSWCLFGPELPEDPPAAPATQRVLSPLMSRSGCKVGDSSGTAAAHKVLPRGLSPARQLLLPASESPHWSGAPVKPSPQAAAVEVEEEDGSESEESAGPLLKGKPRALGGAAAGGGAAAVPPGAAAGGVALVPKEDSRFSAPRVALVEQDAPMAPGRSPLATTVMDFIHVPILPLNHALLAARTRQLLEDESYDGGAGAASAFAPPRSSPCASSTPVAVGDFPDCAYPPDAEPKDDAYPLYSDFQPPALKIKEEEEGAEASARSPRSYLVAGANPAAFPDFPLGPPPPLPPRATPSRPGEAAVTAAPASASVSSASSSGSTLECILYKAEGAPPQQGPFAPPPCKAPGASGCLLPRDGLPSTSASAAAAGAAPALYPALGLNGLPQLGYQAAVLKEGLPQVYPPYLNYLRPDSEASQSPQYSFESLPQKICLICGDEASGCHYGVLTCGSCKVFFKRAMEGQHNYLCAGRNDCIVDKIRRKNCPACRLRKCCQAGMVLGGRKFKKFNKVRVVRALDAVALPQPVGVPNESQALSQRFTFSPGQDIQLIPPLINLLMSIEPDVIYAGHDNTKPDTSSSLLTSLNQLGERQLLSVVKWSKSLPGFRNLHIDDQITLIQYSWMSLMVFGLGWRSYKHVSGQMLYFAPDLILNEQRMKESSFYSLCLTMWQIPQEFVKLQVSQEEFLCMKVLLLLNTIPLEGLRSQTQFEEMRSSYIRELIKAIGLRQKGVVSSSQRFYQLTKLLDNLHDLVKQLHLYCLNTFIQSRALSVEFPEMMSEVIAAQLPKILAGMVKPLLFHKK
Type: functional
PROPERTY NAME: AC50

>>> reported("CC(C(=O)O)c1ccc(N2Cc3ccccc3C2=O)cc1 (centres undefined) [INDOPROFEN]")
"> 30 µM"
>>> reported("CCCN1C[C@H](CSC)C[C@@H]2c3cccc4[nH]cc(c34)C[C@H]21 [PERGOLIDE]")
"> 30 µM"
>>> reported("CO/N=C(\\C(=O)N[C@@H]1C(=O)N2C(C(=O)O)=C(CSc3nnnn3C)CS[C@H]12)c1csc(N)n1 [CEFMENOXIME]")
"1.8 µM"
>>> reported("CCC(C)n1ncn(-c2ccc(N3CCN(c4ccc(OCC5COC(Cn6cncn6)(c6ccc(Cl)cc6Cl)O5)cc4)CC3)cc2)c1=O (centres undefined) [ITRACONAZOLE]")
"> 30 µM"
>>> reported("O=C(O)CCCCCCNC1c2ccccc2CCc2ccccc21 [AMINEPTINE]")
"> 30 µM"

Batch: AC50 for all items listed.
1. O=C(O)CCCCCCCC(=O)O [AZELAIC ACID]
2. Cc1ccc(S(=O)(=O)NC(=O)NN2CC3CCCC3C2)cc1 (centres undefined) [GLICLAZIDE]
3. Cn1nnc2c(C(N)=O)ncn2c1=O [TEMOZOLOMIDE]

1. > 10 µM
2. > 10 µM
3. > 30 µM

Quick check: AC50 of CC(C)=CCC/C(C)=C/C=C/C(C)=C/C=C/C(C)=C/C=C/C=C(C)/C=C/C=C(C)/C=C/C=C(\C)CCC=C(C)C [LYCOPENE] ?
6.2 µM

---

Please go through the items and note down their AC50.
TARGET OR SYSTEM: Beta-2 adrenergic receptor (Homo sapiens, UniProt P07550); also: assay procedure not described here
Sequence (P07550 whole entry): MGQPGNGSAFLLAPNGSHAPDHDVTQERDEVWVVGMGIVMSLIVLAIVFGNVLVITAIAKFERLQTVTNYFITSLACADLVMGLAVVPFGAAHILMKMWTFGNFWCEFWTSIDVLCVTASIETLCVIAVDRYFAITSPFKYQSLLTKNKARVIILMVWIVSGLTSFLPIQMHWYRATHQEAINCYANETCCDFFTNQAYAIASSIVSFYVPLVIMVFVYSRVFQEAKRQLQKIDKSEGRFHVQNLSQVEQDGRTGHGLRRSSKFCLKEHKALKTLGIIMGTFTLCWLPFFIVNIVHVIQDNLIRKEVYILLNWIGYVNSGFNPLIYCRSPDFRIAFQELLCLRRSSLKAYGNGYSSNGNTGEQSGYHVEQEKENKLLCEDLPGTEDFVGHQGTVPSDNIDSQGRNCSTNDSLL
Type: functional, cell-based

>>> reported("COc1ccc2c3c1O[C@H]1[C@@H](O)CC[C@H]4[C@@H](C2)N(C)CC[C@@]341 [DIHYDROCODEINE]")
"> 30 µM"
>>> reported("CNC(=O)c1ccccc1Sc1ccc2c(/C=C/c3ccccn3)n[nH]c2c1")
"> 30 µM"
>>> reported("CC[C@H]1CN2CCc3cc(OC)c(OC)cc3[C@@H]2C[C@@H]1C[C@H]1NCCc2cc(OC)c(OC)cc21")
"> 30 µM"
>>> reported("CNC1Cc2ccccc2N(C)c2ccccc21 (stereo not drawn)")
"> 30 µM"
>>> reported("CN1[C@@H]2CC[C@H]1C[C@@H](OC(c1ccccc1)c1ccccc1)C2")
"> 30 µM"

Batch: AC50 for all items listed.
1. C#C[C@]1(O)CC[C@H]2[C@@H]3CCC4=Cc5oncc5C[C@]4(C)[C@H]3CC[C@@]21C
2. CC(=O)Nc1ccc(O)cc1
3. c1ccc([C@H]2CN3CCSC3=N2)cc1
4. CN1C(=O)C(O)N=C(c2ccccc2)c2cc(Cl)ccc21 (stereo not drawn)

> 30 µM
> 30 µM
> 30 µM
> 30 µM

Batch: AC50 for all items listed.
1. Cn1c(=O)c2c(ncn2CC2OCCO2)n(C)c1=O
2. CCOC(=O)[C@H](CCc1ccccc1)N[C@@H](C)C(=O)N1[C@H](C(=O)O)C[C@@H]2CCC[C@@H]21
3. Cc1nc([N+](=O)[O-])cn1-c1ccc([N+](=O)[O-])cc1
4. CCC1(CC)C(=O)NCC(C)C1=O (stereo not drawn)
5. CC1(C)O[C@@H]2C[C@H]3[C@@H]4CCC5=CC(=O)C=C[C@]5(C)[C@H]4[C@@H](O)C[C@]3(C)[C@]2(C(=O)CO)O1 [DESONIDE]
6. CN(C)CCC(c1ccc(Cl)cc1)c1ccccn1 (stereo not drawn)
7. N[C@@H]1[C@H]2CN(c3nc4c(cc3F)c(=O)c(C(=O)O)cn4-c3ccc(F)cc3F)C[C@@H]12
8. Clc1ccc(CCCOCCCN2CCCCC2)cc1

["> 30 µM", "> 30 µM", "> 30 µM", "> 30 µM", "> 30 µM", "> 30 µM", "> 30 µM", "> 30 µM"]
